# SYSTEM: human SERT (Homo sapiens)
# Construct: expressed in transfected cells
# PROTOCOL_DESCRIPTION: Binding site competition, cells stably transfected with human SERT, [3H]citalopram
# CONDITION_CONTEXT: ratio of Ki, DAT
Parameter: DAT/SERT selectivity. Scope: all listed entries.
Please respond with just the number, no unit label.

Inquiry: Name the reported DAT/SERT selectivity value associated with the compound COC(=O)C1C2CCC(CC1c1ccc(CCF)c(Br)c1)N2 (stereo not shown)
Reply text: 100

Inquiry: Could you do the same for COC(=O)C1C2CCC(CC1c1ccc(CCF)c(Cl)c1)N2 (stereo not shown) , please?
Reply text: 48

Inquiry: Another compound to look at: COC(=O)[C@H]1[C@@H](c2ccc(C(C)=CF)cc2)C[C@@H]2CC[C@H]1N2
Reply text: 37

Inquiry: Now this one: COC(=O)C1C2CCC(CC1c1ccc(/C=C\CF)cc1)N2 (stereo not shown)
Reply text: 116

###

Reported pKi by item:
# SYSTEM: DAT (dopamine transporter site) (Homo sapiens, UniProt Q01959)
# Sequence (Q01959 whole entry): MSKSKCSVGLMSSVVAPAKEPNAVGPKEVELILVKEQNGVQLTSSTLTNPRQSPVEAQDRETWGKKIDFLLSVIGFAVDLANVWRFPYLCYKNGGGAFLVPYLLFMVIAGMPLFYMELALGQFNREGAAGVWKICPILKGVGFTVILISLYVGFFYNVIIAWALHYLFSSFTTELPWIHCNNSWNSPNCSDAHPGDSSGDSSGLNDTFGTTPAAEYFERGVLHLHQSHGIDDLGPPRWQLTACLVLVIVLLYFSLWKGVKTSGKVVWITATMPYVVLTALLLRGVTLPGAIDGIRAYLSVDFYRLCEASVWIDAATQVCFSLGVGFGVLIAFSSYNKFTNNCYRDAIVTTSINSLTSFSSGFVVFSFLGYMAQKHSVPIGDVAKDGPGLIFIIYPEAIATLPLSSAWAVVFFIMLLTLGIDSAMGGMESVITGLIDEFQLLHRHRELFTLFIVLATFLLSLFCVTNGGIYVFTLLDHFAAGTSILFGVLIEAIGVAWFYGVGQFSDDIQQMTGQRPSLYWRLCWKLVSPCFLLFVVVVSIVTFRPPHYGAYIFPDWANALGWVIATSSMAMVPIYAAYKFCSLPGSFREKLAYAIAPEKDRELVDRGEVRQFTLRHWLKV
# PROTOCOL_DESCRIPTION: Transporter affinity of N-alkyl ZIENT ligands in transfected cell lines, [125I]TRI-55
Please keep in mind that pKi is minus log10 of the molar concentration; only the number is needed.

>>> df
                                   compound  observed
0  COC(=O)C1C(c2ccc(C=CI)cc2)CC2CCC1N2C (stereo not drawn) [N-methyl ZIENT]      7.48
1  COC(=O)C1C2CCC(CC1c1ccc(C=CI)cc1)N2 (stereo not drawn) [ZIENT]      7.80

Now for another entry.
Inquiry: Entry COC(=O)C1C(c2ccc(C=CI)cc2)CC2CCC1N2CCF (stereo not drawn) [N-fluoroethyl ZIENT] has what pKi?
Reply text: 7.57

###

Listing of recorded pKi by entry.
# SYSTEM: human NET (Homo sapiens, UniProt P23975)
# Construct: expressed in transfected cells
# PROTOCOL_DESCRIPTION: Binding site competition, cells stably transfected with human NET, [3H]nisoxetine
# CONDITION_CONTEXT: transfected cell lines, read-out: NET Ki
Scale: pKi equals -log10([C]), with [C] in mol/L.

In [3]: df
Out[3]:
                                   compound  observed
0  COC(=O)[C@H]1[C@@H](c2ccc(C(C)=CF)cc2)C[C@@H]2CC[C@H]1N2 [IPPNT]      7.93

Inquiry: State the recorded pKi for this entry: COC(=O)[C@@H]1C2CCC(C[C@@H]1c1ccc(/C=C/I)cc1)N2 (some centres unmarked) [EINT]
Reply text: 7.49

###

Reported pKi is given for each of the following compounds.
# SYSTEM: 5-HTT (serotonin transporter site) (Homo sapiens)
# Sequence (P31645 whole entry): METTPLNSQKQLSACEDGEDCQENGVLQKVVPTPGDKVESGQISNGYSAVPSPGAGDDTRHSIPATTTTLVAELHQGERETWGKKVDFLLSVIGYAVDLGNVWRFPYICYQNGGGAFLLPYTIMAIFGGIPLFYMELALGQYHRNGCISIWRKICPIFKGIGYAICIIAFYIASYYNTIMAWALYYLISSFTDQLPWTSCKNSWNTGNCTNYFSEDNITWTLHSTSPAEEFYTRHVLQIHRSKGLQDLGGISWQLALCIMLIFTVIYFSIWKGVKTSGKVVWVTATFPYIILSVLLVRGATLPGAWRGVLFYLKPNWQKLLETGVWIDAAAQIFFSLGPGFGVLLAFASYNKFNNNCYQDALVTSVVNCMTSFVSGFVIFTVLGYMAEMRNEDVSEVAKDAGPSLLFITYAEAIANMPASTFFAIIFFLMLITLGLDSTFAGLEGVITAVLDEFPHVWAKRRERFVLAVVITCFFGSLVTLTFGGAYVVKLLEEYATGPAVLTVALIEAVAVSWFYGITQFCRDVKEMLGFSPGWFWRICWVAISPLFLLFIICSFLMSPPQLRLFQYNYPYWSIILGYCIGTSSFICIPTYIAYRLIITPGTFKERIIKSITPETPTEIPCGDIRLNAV
# PROTOCOL_DESCRIPTION: Transporter affinity of N-alkyl ZIENT ligands in transfected cell lines, [3H]citalopram
Give only the number. pKi is defined as minus log10 of concentration in molar units.

// worked examples, pKi included
In [3]: df
Out[3]:
                                   compound  observed
0  COC(=O)C1C2CCC(CC1c1ccc(C=CI)cc1)N2 (stereo not drawn)      9.60
1  COC(=O)C1C(c2ccc(C=CI)cc2)CC2CCC1N2C (stereo not drawn)      9.32

Inquiry: // returns reported pKi for input COC(=O)C1C(c2ccc(C=CI)cc2)CC2CCC1N2CCF (stereo not drawn)
Reply text: 8.89

###

# SYSTEM: human SERT (Homo sapiens, UniProt P31645)
# Construct: expressed in transfected cells
# Sequence (P31645 whole entry): as above
# PROTOCOL_DESCRIPTION: Binding site competition, cells stably transfected with human SERT, [3H]citalopram
# CONDITION_CONTEXT: ratio of Ki, NET
READOUT: NET/SERT selectivity

Example cases with answers are listed next.
>>> df
                                   compound               readout  observed
0  COC(=O)C1C2CCC(CC1c1ccc(CCF)c(Cl)c1)N2 (stereo not shown)  NET/SERT selectivity       209
1  COC(=O)C1C2CCC(CC1c1ccc(CCF)c(Br)c1)N2 (stereo not shown)  NET/SERT selectivity       573

Inquiry: Could you share which NET/SERT selectivity value was measured for COC(=O)C1C2CCC(CC1c1ccc(C=CI)cc1)N2 (stereo not shown) ?
Reply text: 484

Inquiry: Try COC(=O)C1C2CCC(CC1c1ccc(CCF)c(I)c1)N2 (stereo not shown) next.
Reply text: 649

###

# SYSTEM: human NET (Homo sapiens)
# Construct: expressed in transfected cells
# PROTOCOL_DESCRIPTION: Binding site competition, cells stably transfected with human NET, [3H]nisoxetine
# CONDITION_CONTEXT: NET Ki, transfected cell lines
READOUT: pKi
Remember the convention: pKi equals -log10 of concentration in molar.

                                   molecule                    system  observed
0  COC(=O)C1C2CCC(CC1c1ccc(CCF)c(Cl)c1)N2 (stereo not drawn) [FEClNT]  human NET (Homo sapiens)      6.93
1  COC(=O)C1C2CCC(CC1c1ccc(CCF)c(Br)c1)N2 (stereo not drawn) [FEBrNT]  human NET (Homo sapiens)      6.90

Could you now look at the following molecule, please?
Inquiry: Form field: reported pKi of COC(=O)C1C2CCC(CC1c1ccc(C=CI)cc1)N2 (stereo not drawn) [ZIENT]
Reply text: 7.62

###

Consider the following compounds and their measured pKi readings.
# SYSTEM: NET (norepinephrine transporter site) (Homo sapiens, UniProt P23975)
# Construct: expressed in transfected cells
# Sequence (P23975 whole entry): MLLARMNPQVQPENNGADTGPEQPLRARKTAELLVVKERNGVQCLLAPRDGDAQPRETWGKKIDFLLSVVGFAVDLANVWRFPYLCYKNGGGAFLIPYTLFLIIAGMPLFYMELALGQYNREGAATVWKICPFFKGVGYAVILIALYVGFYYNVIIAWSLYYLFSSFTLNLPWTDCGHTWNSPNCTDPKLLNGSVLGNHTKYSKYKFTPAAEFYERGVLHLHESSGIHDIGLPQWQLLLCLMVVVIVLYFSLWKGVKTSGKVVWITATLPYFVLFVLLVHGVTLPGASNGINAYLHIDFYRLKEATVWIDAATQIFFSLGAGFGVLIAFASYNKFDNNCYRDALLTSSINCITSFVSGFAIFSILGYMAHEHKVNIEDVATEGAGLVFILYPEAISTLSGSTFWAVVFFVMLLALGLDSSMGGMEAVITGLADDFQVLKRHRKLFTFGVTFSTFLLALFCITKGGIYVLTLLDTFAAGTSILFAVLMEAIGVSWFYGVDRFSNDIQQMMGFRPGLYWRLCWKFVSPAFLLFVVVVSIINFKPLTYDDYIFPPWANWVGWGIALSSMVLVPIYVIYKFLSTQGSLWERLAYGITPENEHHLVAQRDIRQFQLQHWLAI
# PROTOCOL_DESCRIPTION: Transporter affinity of N-alkyl ZIENT ligands in transfected cell lines, [3H]nisoxetine
# Format: binding
Would you please state pKi, meaning minus log10 of the concentration in mol/L, as a bare number?

Some compounds with known pKi results, for comparison:
>>> df
                                   compound  observed
0  COC(=O)C1C(c2ccc(C=CI)cc2)CC2CCC1N2C (stereo not drawn)      7.16
1  COC(=O)C1C(c2ccc(C=CI)cc2)CC2CCC1N2CCF (stereo not drawn)      7.68

Let's switch to this compound now.
Inquiry: Entry COC(=O)C1C2CCC(CC1c1ccc(C=CI)cc1)N2 (stereo not drawn) : reported pKi = ?
Reply text: 7.19

###

Measured Ki by item
# SYSTEM: human SERT (Homo sapiens)
# PROTOCOL_DESCRIPTION: Binding site competition, cells stably transfected with human SERT, [3H]citalopram
# CONDITION_CONTEXT: [3H]citalopram, transfected cell lines
Quick reminder: number only, in nM, skip the unit.

                                   molecule  readout  observed
0  COC(=O)[C@H]1[C@@H](c2ccc(C(C)=CF)cc2)C[C@@H]2CC[C@H]1N2       Ki      0.08
1  COC(=O)[C@@H]1C2CCC(C[C@@H]1c1ccc(/C=C/I)cc1)N2 (stereo partly shown)       Ki      1.15
2  COC(=O)C1C2CCC(CC1c1ccc(I)cc1)N2 (stereo not shown) [Nor-CIT, reference compound]       Ki      0.12

Turning to the following molecule.
Inquiry: Given the entry COC(=O)C1C2CCC(CC1c1ccc(/C=C\CF)cc1)N2 (stereo not shown) , what Ki was observed with human SERT (Homo sapiens)?
Reply text: 0.1

###

# SYSTEM: human DAT (Homo sapiens, UniProt Q01959)
# PROTOCOL_DESCRIPTION: Binding site competition, cells stably transfected with human DAT, [3H]WIN 35,428
# CONDITION_CONTEXT: [3H]WIN 35428, transfected cell lines
Quick reference for log10(Ki) among some molecules
Hey, these are logged values: log10 of Ki, nM being the unit before logging.

Inquiry: Would you kindly share the measured log10(Ki) for COC(=O)C1C2CCC(CC1c1ccc(/C=C\CF)cc1)N2 (centres unmarked) ?
Reply text: 1.06

Inquiry: # repeat for COC(=O)C1C2CCC(CC1c1ccc(CCF)c(Cl)c1)N2 (centres unmarked)
Reply text: 1.43

Inquiry: How about this molecule: COC(=O)[C@@H]1C2CCC(C[C@@H]1c1ccc(/C=C/I)cc1)N2 (some centres unmarked)
Reply text: 0.27

Inquiry: Same lookup for COC(=O)C1C2CCC(CC1c1ccc(C=CI)cc1)N2 (centres unmarked) , please.
Reply text: 0.54

Inquiry: Same lookup for COC(=O)[C@H]1[C@@H](c2ccc(C(C)=CF)cc2)C[C@@H]2CC[C@H]1N2 , please.
Reply text: 0.47

Each recorded value in this set is attributed to patent US6843979B2.
